- Test system: MCF7 breast
- experiment: NCI-60 one-dose screen, 48 h
- settings: 10 µM
This is part of a sample that, as a whole, favours compounds with a hit. Of some 83,000 tested, about 20% had one in any assay. Calls of active or inactive are those of the source. How the source made its calls: active means growth percent below 10; inactive means the rest.
Outcomes you can answer with include only these: active, inactive

Query: Tell me the assay call for CCC(=O)OC1CCn2c1nc1c2C(=O)C(C)=C(N2CC2)C1=O (centres undefined) please.
Result: active

Query: Tell me the assay call for CCC1(O)CC(OC2CC(N(C)C)C(OC3CC4OC5CC(=O)C(C)OC5OC4C(C)O3)C(C)O2)c2c(cc3c(c2O)C(=O)c2c(O)ccc(O)c2C3=O)C1C(=O)OC (centres undefined) please.
Result: active

Query: Tell me the assay call for "CN1CCN(c2ccc([N+](=O)[O-])c3no[n+]([O-])c23)CC1" please.
Result: active

---

- Test system: OVCAR-5 ovarian
- experiment: NCI-60 one-dose screen, 48 h (100 = growth as untreated, 0 = no growth, -100 = all killed)
- settings: 10 µM unless noted
Compounds without any hit were thinned out: in the full panel of roughly 83,000, 20% have a hit. The source made the active and inactive calls. How the source made its calls: active means growth percent below 10; inactive means the rest.
quantity_name: growth

{"entry_smiles": "CC1=C(CO)C2=C(C)C3(CC3)[C@@](C)(O)C(=O)C2=C1", "measured_value": "14.3% (inactive)"}
{"entry_smiles": "CC[n+]1c(-c2ccccc2)c2cc(N)ccc2c2ccc(N)cc21", "measured_value": "49.4% (inactive)"}

Lab note: next molecule to report on.
Query: Fill in the recorded growth for this molecule, with OVCAR-5 ovarian as test system: "CC[C@@]1(O)C(=O)OCc2c1cc1n(c2=O)Cc2cc3ccccc3nc2-1"
Result: -1.11% (active)

---

- Tested on: MDA-MB-435 melanoma
- experiment: NCI-60 one-dose screen, 48 h (100 = growth as untreated, 0 = no growth, -100 = all killed)
- settings: 10 µM unless noted
The panel holds about 83,000 compounds, 20% with a hit somewhere; the sample as a whole holds those more often. Active and inactive are the calls of the source. How the source made its calls: active means growth percent below 10; inactive means the rest.
quantity_name: growth

Some entries whose results are on file:
{"compound": "Oc1cc[c]([Hg][Cl])cc1", "quantity_name": "growth", "measured_value": "96% (inactive)"}
{"compound": "CC[n+]1c(-c2ccccc2)c2cc(N)ccc2c2ccc(N)cc21", "quantity_name": "growth", "measured_value": "-36% (active)"}
{"compound": "CC[C@@]1(O)C[C@H](OC2CC(N(C)C)C(O)C(C)O2)c2c(O)c3c(c(O)c2[C@H]1OC1CC(N(C)C)C(O)C(C)O1)C(=O)c1cccc(O)c1C3=O (stereo not given in full)", "quantity_name": "growth", "measured_value": "-86% (active)"}
{"compound": "CCC1(O)CC(OC2CC(N(C)C)C(OC3CC4OC5CC(=O)C(C)OC5OC4C(C)O3)C(C)O2)c2c(cc3c(c2O)C(=O)c2c(O)ccc(O)c2C3=O)C1C(=O)OC (stereo not given)", "quantity_name": "growth", "measured_value": "-94.1% (active)"}
{"compound": "CCC(=O)OC1CCn2c1nc1c2C(=O)C(C)=C(N2CC2)C1=O (stereo not given)", "quantity_name": "growth", "measured_value": "-83.6% (active)"}
{"compound": "COc1ccc(OC)c(/C=C/[N+](=O)[O-])c1", "quantity_name": "growth", "measured_value": "7.04% (active)"}

Query: Form field: reported growth of "CC[C@](O)(C(=O)O)c1cc2n(c(=O)c1CO)Cc1cc3ccccc3nc1-2"
Result: -81% (active)

Query: Form field: reported growth of "CN1CCN(c2ccc([N+](=O)[O-])c3no[n+]([O-])c23)CC1"
Result: -82.2% (active)

Query: Form field: reported growth of "Cc1cc(N=Nc2ccccc2C)ccc1N"
Result: 82.9% (inactive)

Query: Form field: reported growth of CCOC(=O)C(NC(=O)C(Cc1ccc(N(CCCl)CCCl)cc1)NC(C)=O)C(C)C (stereo not given)
Result: 101% (inactive)

Query: Form field: reported growth of O=C1c2ccccc2C(=O)C(Cl)C1Cl (stereo not given)
Result: 95.9% (inactive)
